B1: CFHR2 (parent)
chain: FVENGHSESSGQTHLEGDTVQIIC

# Variants of: B1
# assay-explanation: protein stability index of a GFP-peptide fusion (GPS, HEK-293T) (PSI 1-6); higher = more stable;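 note: lentivirally expressed fusions sorted by FACS into six bins by GFP to DsRed ratio, PSI derived from sequencing read proportions per bin multiplied by bin number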
# measurement-setup: c terminus: a fixed tail appended
Binning scheme for protein stability index: low value = under 2, medium value = from 2 up to 3, high value = 3 and over

Past entries and their recorded results:
mutation-code: S10V
class-name: low value

mutation-code: Q12W
class-name: medium value

mutation-code: V2T
class-name: high value

mutation-code: Q21F
class-name: low value

mutation-code: G17F
class-name: low value

Exercise: Lab note: sort `C24S` into the matching protein stability index band.
Solution: high value

Exercise: Which protein stability index category applies to `H6M` here?
Solution: medium value

Exercise: Hi there! Could you help me figure out the category for `L15N` please?
Solution: high value

Exercise: Bin? `H14M`
Solution: medium value

Exercise: Sort `E16T` into one of the categories.
Solution: medium value

Exercise: Bin this entry: `Q12M`
Solution: low value

Exercise: Class? Entry: `V2I`
Solution: high value

Exercise: Using the reported protein stability index, which band applies to `I23H` ?
Solution: high value

Exercise: Into which category would you place `Q21A` ?
Solution: high value

Exercise: GET /class?item= `E16H`
Solution: low value

Exercise: Each variant maps to one class by protein stability index. Which class for `H6Q` ?
Solution: medium value

Exercise: Class for `D18M` ?
Solution: low value

Exercise: // bin(item) where item = `T13F`
Solution: low value

Cited source: the supplement of paper PMC10567573
